molecular target: Histamine H2 receptor (Homo sapiens) (UniProt P25021); conditions: Compound concentration 10 µM
Sequence (P25021 whole entry): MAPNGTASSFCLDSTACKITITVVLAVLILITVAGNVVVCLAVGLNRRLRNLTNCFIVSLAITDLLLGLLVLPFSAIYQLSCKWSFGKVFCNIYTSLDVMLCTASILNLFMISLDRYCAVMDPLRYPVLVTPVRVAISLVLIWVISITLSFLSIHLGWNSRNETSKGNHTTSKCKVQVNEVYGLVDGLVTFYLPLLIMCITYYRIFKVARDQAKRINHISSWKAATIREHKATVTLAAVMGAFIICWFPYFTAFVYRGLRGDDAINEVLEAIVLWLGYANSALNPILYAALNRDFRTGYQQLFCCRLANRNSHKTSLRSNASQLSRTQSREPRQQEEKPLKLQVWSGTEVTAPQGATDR
Description: PDSP Primary Binding target: HRH2 - Compounds are tested at 10 uM concentration, plate are incubated at room temperature in the dark for 90 minutes. Reaction are stopped by vacuum filtration onto 0.3% polyethyleneimine soaked filter mats using Filtermate harvester. Scintilation cocktail is then melted onto microwave-dried filters on a hot plate and the radio activity is counted in Microbia counter.
For each record, write down the corresponding inhibition.

What inhibition value was documented for this compound, CN(C)S(=O)(=O)c1ccc(NC(=S)N2CCC(C(O)(c3ccccc3)c3ccccc3)CC2)cc1 ?
18.6%

What inhibition value was documented for this compound, CCc1ccc(OCc2ccccc2C(=O)Nc2ccc3nc(C)cc(N)c3c2)cc1 ?
46.7%

What inhibition value was documented for this compound, CC(C)NC(=O)c1ccc(C#Cc2ccncc2)cn1 ?
25.7%

What inhibition value was documented for this compound, CN1CCCC(n2nc(Cc3ccc(Cl)cc3)c3ccccc3c2=O)CC1 (stereo not drawn) ?
22.8%

What inhibition value was documented for this compound, CC(C)C[C@H](NC(=O)N1CCCCCC1)C(=O)N[C@H](Cc1cn(C)c2ccccc12)C(=O)N[C@H](Cc1ccccn1)C(=O)O ?
18%

What inhibition value was documented for this compound, Cc1nc(C#Cc2ccnc(Cl)c2)c(C)n1-c1ccc(OC(F)(F)F)cc1 ?
10.4%

What inhibition value was documented for this compound, COc1ccccc1CN[C@H]1C2CCN(CC2)[C@H]1C(c1ccccc1)c1ccccc1 ?
8.86%

What inhibition value was documented for this compound, Cc1cc(C)cc(C(=O)N(C)[C@H](Cc2ccc(-c3ccccc3)cc2)C(=O)N[C@@H](Cc2c[nH]c3ccccc23)C(=O)O)c1 ?
34.1%

What inhibition value was documented for this compound, CC1=C2C[C@H]3[C@@H](CC=C4C[C@@H](O)CC[C@@]43C)[C@@H]2CC[C@]12O[C@@H]1C[C@H](C)CN[C@H]1[C@H]2C ?
20.5%

What inhibition value was documented for this compound, Cc1nc(C(=O)N2CCC[C@H]2Cc2nnc(-c3ccccc3)o2)c(-c2ccccc2F)s1 ?
-4.23%

What inhibition value was documented for this compound, C[C@@H](NCCCc1cccc(C(F)(F)F)c1)c1cccc2ccccc12 ?
62.1%

What inhibition value was documented for this compound, Cc1c(OCc2cccc(-c3ccc(C(=O)O)cc3)c2)cc2c(c1C)C(=O)C(C1CCCC1)C2 (stereo not drawn) ?
25.4%

What inhibition value was documented for this compound, COc1ccnc(N2CCC3(CCCN(Cc4c[nH]c5ccccc45)C3=O)CC2)n1 ?
-7.83%

What inhibition value was documented for this compound, CCOC(=O)c1c(C)[nH]c2ccc3c(c12)CN1CCc2cc(OC)ccc2C1O3 (stereo not drawn) ?
57.5%

What inhibition value was documented for this compound, Cc1nnn(-c2ccc(-c3ccc(C4(C(=O)O)CC4)cc3)cc2)c1NC(=O)O[C@H](C)c1ccccc1 ?
4.74%

What inhibition value was documented for this compound, CN1C2CCC1CC(OC(c1ccc(F)cc1)c1ccc(F)cc1)C2 (stereo not drawn) ?
86.9%

What inhibition value was documented for this compound, N#Cc1ccc(NC(=O)Nc2ccccc2Br)c2nn[nH]c12 ?
17.7%

What inhibition value was documented for this compound, CCc1cc(C(C)=O)c(O)cc1OCCCCCC(C)(C)c1nn[nH]n1 ?
6.38%

What inhibition value was documented for this compound, c1cc(CN2CCCNCCNCCCNCC2)ccc1CN1CCCNCCNCCCNCC1 ?
0.23%

What inhibition value was documented for this compound, CCCSc1nc(N[C@@H]2C[C@H]2c2ccc(F)c(F)c2)c2nnn([C@@H]3C[C@H](OCCO)[C@@H](O)[C@H]3O)c2n1 ?
3.94%

What inhibition value was documented for this compound, Cc1c(F)cccc1NC(=O)Nc1ccc(Cl)c(S(=O)(=O)[C@H]2CCCNC2)c1O ?
18.3%

What inhibition value was documented for this compound, O=C(O)CC1CCC2(CC1)CCN(c1cc(OC(F)(F)F)ccc1Cl)CC2 ?
-4.3%

What inhibition value was documented for this compound, O=C(O)COc1cccc(CN(Cc2ccc(-n3cccn3)cc2)S(=O)(=O)c2cccnc2)c1 ?
3.71%

What inhibition value was documented for this compound, CCc1cc2c(c(CC)n1)CCC(=O)N2Cc1ccc(-c2ccccc2-c2nnn[nH]2)cc1 ?
26.1%

What inhibition value was documented for this compound, C/C(=N\NC(=O)[C@@H]1C(=O)NC[C@H]1c1ccccc1)c1cccc(Br)c1 ?
20.4%

What inhibition value was documented for this compound, COc1ccc(/C=C/CCCCOc2ccc(C(=O)c3cccc(C(=O)O)c3)cc2CCC(=O)O)cc1 ?
21.3%

What inhibition value was documented for this compound, C[C@]1(C(=O)N(CCCC(=O)O)Cc2cccc(Cl)c2)CCN1C(=O)c1csc2ccccc12 ?
19.3%

What inhibition value was documented for this compound, O=C(Nc1ccc(Cl)cc1)Nc1cccc(-c2cccc(N3CCCC3)n2)c1 ?
20%

What inhibition value was documented for this compound, CCCCN(CCCC)C(=O)CN1C[C@@H](c2ccc3c(c2)OCO3)[C@H](C(=O)O)[C@H]1c1ccc(OC)cc1 ?
31%

What inhibition value was documented for this compound, CCCCC#Cc1nc(NC)c2ncn([C@@H]3O[C@H](CO)[C@@H](O)[C@H]3O)c2n1 ?
16%

What inhibition value was documented for this compound, N#Cc1c(N)nc(SCC(N)=O)c(C#N)c1-c1ccc(OCC2CC2)cc1 ?
41.5%

What inhibition value was documented for this compound, Clc1ccc(CCCOCCCN2CCCCC2)cc1 ?
33%

What inhibition value was documented for this compound, COc1ccc(S(=O)(=O)c2cc(OC)ccc2S(=O)(=O)c2ccc([C@H](C)NS(C)(=O)=O)cc2)cc1 ?
15.6%

What inhibition value was documented for this compound, Cc1nc(-c2ccc(C(F)(F)F)cc2)sc1COc1ccc([C@H](CC(=O)O)c2ccon2)cc1 ?
15.9%

What inhibition value was documented for this compound, Cc1c(C(=O)NC2CCCCC2)sc2nc3ccc(N)cc3n12 ?
21.4%

What inhibition value was documented for this compound, CCCCN(CC)c1nc(C)nc2c1c(C)cn2-c1c(C)cc(C)cc1C ?
20.9%

What inhibition value was documented for this compound, CC(C)NCC(O)c1ccc(N)c(C#N)c1 (stereo not drawn) ?
5.77%

What inhibition value was documented for this compound, FC(F)(F)c1c(N2CCC(c3ccccc3)CC2)ccn2c(CC3CC3)nnc12 ?
12.3%
